# test.target: MPV fusion glycoprotein with the D280N mutation (MPV-F N280) (metapneumovirus)
# procedure.text: SPR; F protein loaded on streptavidin sensors, mAb in solution
pKd: −log10 of the molar value.
Outcome: Condition met for pKd of at least 9; Condition not met for anything lower.

Take a look at these entries with their results.
Query :: Form field: pKd at least 9? Entry: MPK126 (antibody, V domains shown) VH: EVQLVESGGGLVKPGGSMRLSCAASGVTLSGYYMIWIRQAPGKGLEWISDISASSTYTDYADSVKGRFTVSRDNSQNTVYLQMNSLRAEDTAVYYCATEQTPSPGPFDLWGQGTLVTVSS VL: QSVLTQPPSVSGAPGQRVTISCTGSSSNVGAGYDVHWYQQFPGTSPKLLIYRNTNRPSGVPDRFSGFKSGTSASLAITGLEAEDEADYYCQSYDRSLSGWVFGAGTKLTVL
Result :: Condition met

Query :: Form field: pKd at least 9? Entry: MPK130 (antibody, V domains shown) VH: EVQLVESGGGLVKPGGSLTLSCEASGFSISGYYMIWVRQAPGKGLEWVSSISASDTYIDYAVSVQGRFTISRHNTKNSLYLQMSSLRVEDTGVYYCTREKVPSPGPFDCWGQGTLVTVSS VL: QSVLTQPPSVSGAPGQRITISCTGTSSNIGAGYDVHWYQHLPGAAPRLLIYVNTNRPSGVPDRFSGARSGTSASLAITGLQAEDEADYYCQSYDRSLGGWAFGEGTKVTVL
Result :: Condition not met

Query :: Form field: pKd at least 9? Entry: MPK144 (antibody, V domains shown) VH: EVQLVESGGGLVRPGGSLRLSCAASGFTFTGYYMMWIRQAPGKGLEWISDISSSSSYTNYADSVKGRFAISRDNAQNTLYLQMNSLRAEDTAVYYCATEQVPSPGPFDLWGQGTLVTVSS VL: QSVLTQPPSVSGAPGQRVTISCTGSSSNFGAGYDVHWYQQFPGTSPKLLIYRNTNRPSGVPDRFSGSKSGTSASLAITGLQAEDEADYYCQSYDRSLTGWVFGGGTKLTVL
Result :: Condition not met

---
Query :: Form field: pKd at least 9? Entry: MPK146 (antibody, V domains shown) VH: QVQLVESGGGLVKPGGSLRLSCAASGFTFSGYYMIWIRQAPGKGLEWIASISGSSNYIDYADSVRGRFTISRDNARNILDLQMNSLRAGDTALYYCATEQVPSPGPFDLWGQGTLVTVSS VL: QSVLTQPPSVSGAPGQRVTISCTGSNSNLGAGYDVHWYQQFPGTSPKLLIYRNTNRPSGVPDRFAGSKSGTSASLAITGLQAEDEADYYCQSYDRSLSGWVFGGGTKLTVL
Result :: Condition not met

Query :: Form field: pKd at least 9? Entry: MPK142-v1 (antibody, V domains shown) VH: EVQLVESGGGLVEPGGSLRLSCAASGFTISGYGMSWVRQAPGKGLEWVSSISASSSYIYYGDAMKGRITISRDNGWNSMYLQMNSLRTEDTAVYYCATAPIEPPYFDLWGRGTLVTVSS VL: QSVLTQPPSVSGAPGQRVTISCTGSSSNIGAGYDVHWYQQFPGKAPKVLIYGNNNRPSGVPDRFAASNSGASASLAITGLQAEDEAAYFCQSYDRRLSGPVFGGGTKLTVL
Result :: Condition not met

Query :: Form field: pKd at least 9? Entry: MPK174-v2 (antibody, V domains shown) VH: EVQLVESGGGLVKPGGSLRLSCAASRFKFGDYYMSWIRQAPGKGLEWVSNISPSSSYTNYADSVKGRFTISRDNAKNLLYLQMNSLRAEDTAVYYCARESCSGGSCSLHGMDVWGQGTTVTVAS VL: QSVLTQPPSVSGAPGQRVTISCTGSSSNIGAGYDVHWYQQLPGTAPKLLIYDNSNRPSGVPDRFSGSKSGTSASLAITGLRAEDDADYYCQSYDRSLGGSIFGGGTKLTVL
Result :: Condition not met

Query :: Form field: pKd at least 9? Entry: MPK129 (antibody, V domains shown) VH: EVQLVESGGGLVKPGGSLRLSCEASGFSLSGYYMIWIRQAPGKGLEWISSISGSGNYIDYADSVKGRFTISRDNGHNTLYLQMNSLRVEDTAVYYCATEQTPSPGPFDHWGQGTLVTVSS VL: QTVVTQPPSVSGAPGQRVTISCTGTSSNIGTGYDVHWYQQFPGTSPKLLIYRNTNRPSGVPDRFSGSKSGSSASLAIAGLQAEDEADYYCQSYDRSVSGWVFGGGTKLTVL
Result :: Condition not met

Query :: Form field: pKd at least 9? Entry: MPK149 (antibody, V domains shown) VH: QVQLVESGGGLVKPGGSLRLSCEASGFTISGYFMIWIRQAPGKGLEWISSISGSSTYTDYAESVKGRFTISRDNGRSTLYLQMNSLRVEDTAVYYCATEQTPSPGPFDLWGQGTLVTVSS VL: QSVVTQPPSVSGAPGQRVTISCTGTSSNIGAGYDVHWYQQFPGTSPRLLINRNTNRPSGVPDRFSGSQSGSSASLAIAGLQAEDEADYYCQSYDRSVSGWVFGGGTKLTVL
Result :: Condition met

The measurements presented in this section are drawn from patent US20260028391A1.
